- assayed_target: Cytochrome P450 2C9 (Homo sapiens)
- Sequence (P11712 whole entry): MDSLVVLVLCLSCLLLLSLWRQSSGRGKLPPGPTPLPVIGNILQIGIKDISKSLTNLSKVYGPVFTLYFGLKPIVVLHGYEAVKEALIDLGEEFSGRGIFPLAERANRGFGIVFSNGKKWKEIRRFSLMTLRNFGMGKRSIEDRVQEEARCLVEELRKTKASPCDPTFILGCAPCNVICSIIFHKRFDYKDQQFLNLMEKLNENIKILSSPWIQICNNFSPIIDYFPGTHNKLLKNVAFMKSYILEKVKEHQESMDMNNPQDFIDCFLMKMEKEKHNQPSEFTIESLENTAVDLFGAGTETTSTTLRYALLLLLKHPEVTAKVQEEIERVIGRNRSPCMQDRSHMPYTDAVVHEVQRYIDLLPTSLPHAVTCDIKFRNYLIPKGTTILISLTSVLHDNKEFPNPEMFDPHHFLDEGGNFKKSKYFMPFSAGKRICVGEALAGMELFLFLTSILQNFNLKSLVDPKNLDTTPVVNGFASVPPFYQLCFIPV
quantity_name: pIC50
Give bare numbers, as −log10 of the molar value.

Ask | Tell me the measured pIC50 of Cc1cc2c(F)c(Oc3ncnn4cc(OC[C@@H](C)OC(=O)CN)c(C)c34)ccc2[nH]1 , please.
Reply | 7.20

* * *

- measurement_description: AUC (0 to 4 hrs) in mouse at 200 mg/kg, po
- Assay type: ADME, organism-based
- Set-up: time < 4 hr, dose 200 mg/kg, route oral
- reported_conditions: plasma
Give AUC(0-t) at 4 h for every item shown.
Answers are plain numbers, in µM·h.

- compound: "Cc1cc2c(F)c(Oc3ncnn4cc(OC[C@@H](C)OC(=O)CN)c(C)c34)ccc2[nH]1"
  AUC(0-t) at 4 h, µM·h: 303
- compound: "Cc1cc2c(F)c(Oc3ncnn4cc(OC[C@@H](C)OC(=O)C(N)CC(C)C)c(C)c34)ccc2[nH]1 (single isomer, unassigned)"
  AUC(0-t) at 4 h, µM·h: 451
- compound: "Cc1cc2c(F)c(Oc3ncnn4cc(OC[C@@H](C)O)c(C)c34)ccc2[nH]1"
  AUC(0-t) at 4 h, µM·h: 52

Quick one: give me AUC(0-t) at 4 h for each item below, same order please.
1. Cc1cc2c(F)c(Oc3ncnn4cc(OC[C@@H](C)OC(=O)C(C)N)c(C)c34)ccc2[nH]1 (single isomer, unassigned; 8)
2. Cc1cc2c(F)c(Oc3ncnn4cc(OC[C@@H](C)OC(=O)C(C)(C)N)c(C)c34)ccc2[nH]1

Reply |
1. 276
2. 213

* * *

- assayed_target: Cytochrome P450 1A2 (Homo sapiens, UniProt P05177)
- Sequence (P05177 whole entry): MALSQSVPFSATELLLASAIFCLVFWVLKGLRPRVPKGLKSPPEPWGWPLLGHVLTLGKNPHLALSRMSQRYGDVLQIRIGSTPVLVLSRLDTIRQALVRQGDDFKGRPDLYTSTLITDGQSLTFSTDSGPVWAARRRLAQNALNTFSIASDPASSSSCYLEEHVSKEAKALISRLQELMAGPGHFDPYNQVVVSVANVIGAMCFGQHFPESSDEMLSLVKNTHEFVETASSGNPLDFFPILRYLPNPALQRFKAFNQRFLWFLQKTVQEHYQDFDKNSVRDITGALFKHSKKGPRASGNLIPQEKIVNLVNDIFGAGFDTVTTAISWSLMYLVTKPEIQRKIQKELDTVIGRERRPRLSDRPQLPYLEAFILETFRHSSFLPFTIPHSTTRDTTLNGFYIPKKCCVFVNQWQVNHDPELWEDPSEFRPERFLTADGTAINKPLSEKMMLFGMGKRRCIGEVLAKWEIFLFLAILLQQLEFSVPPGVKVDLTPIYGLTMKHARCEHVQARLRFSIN
quantity_name: IC50 (µM)
Give bare numbers, in µM.

Ask | Tell me the measured IC50 of Cc1cc2c(F)c(Oc3ncnn4cc(OC[C@@H](C)OC(=O)CN)c(C)c34)ccc2[nH]1 , please.
Reply | 3.7

* * *

Give pIC50 for every item shown.
- assayed_target: Cytochrome P450 3A4 (Homo sapiens)
- Sequence (P08684 whole entry): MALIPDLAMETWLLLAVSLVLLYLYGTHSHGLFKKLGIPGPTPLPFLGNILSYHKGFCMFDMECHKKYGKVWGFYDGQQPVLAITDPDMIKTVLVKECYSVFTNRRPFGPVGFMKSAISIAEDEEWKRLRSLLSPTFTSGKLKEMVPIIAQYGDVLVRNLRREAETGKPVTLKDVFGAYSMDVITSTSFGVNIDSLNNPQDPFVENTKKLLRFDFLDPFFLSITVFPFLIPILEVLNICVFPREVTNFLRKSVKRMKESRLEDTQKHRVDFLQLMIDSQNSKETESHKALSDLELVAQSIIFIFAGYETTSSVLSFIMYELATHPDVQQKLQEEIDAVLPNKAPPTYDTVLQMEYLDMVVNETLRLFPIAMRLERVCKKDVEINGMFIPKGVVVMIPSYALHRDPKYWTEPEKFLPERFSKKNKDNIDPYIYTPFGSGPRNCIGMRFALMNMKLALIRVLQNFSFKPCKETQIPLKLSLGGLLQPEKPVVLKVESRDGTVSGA
- measurement_description: Inhibition of human CYP3A4 using 7-benzyl-trifluoromethyl coumarin
- Type: ADME
Give bare numbers, as −log10 of the molar value.

- molecule: "Cc1cc2c(F)c(Oc3ncnn4cc(OC[C@@H](C)OC(=O)CN)c(C)c34)ccc2[nH]1"
  pIC50: 6.80

Proceeding to the next molecule to report its pIC50.
Ask | Provide the documented pIC50 with Cytochrome P450 3A4 (Homo sapiens) as the system for Cc1cc2c(F)c(Oc3ncnn4cc(OC[C@@H](C)OC(=O)C(N)CC(C)C)c(C)c34)ccc2[nH]1 (single isomer, unassigned)
Reply | 7.02

* * *

- measurement_description: Cmax in mouse at 200 mg/kg, po
- Format: ADME, organism-based
- Parameters: dose 200 mg/kg, route oral
- reported_conditions: in vivo
Give log10(Cmax) for every item shown.
Response schema: value (number) is log10 of Cmax in units of µM.

- molecule: "Cc1cc2c(F)c(Oc3ncnn4cc(OC[C@@H](C)OC(=O)CN)c(C)c34)ccc2[nH]1"
  numeric_value: 2.10

Quick one: give me log10(Cmax) for each item below, same order please.
1. Cc1cc2c(F)c(Oc3ncnn4cc(OC[C@@H](C)O)c(C)c34)ccc2[nH]1
2. Cc1cc2c(F)c(Oc3ncnn4cc(OC[C@@H](C)OC(=O)C(C)(C)N)c(C)c34)ccc2[nH]1
3. Cc1cc2c(F)c(Oc3ncnn4cc(OC[C@@H](C)OC(=O)C(N)CC(C)C)c(C)c34)ccc2[nH]1 (single isomer, unassigned)
4. Cc1cc2c(F)c(Oc3ncnn4cc(OC[C@@H](C)OC(=O)C(C)N)c(C)c34)ccc2[nH]1 (single isomer, unassigned; 8)

Reply |
1.15
1.82
2.18
1.89

All figures here come from ChEMBL document CHEMBL1141628.
